Would you mind telling me the reported melting point of each entry?

Take a look at these entries with their results.
compound	melting point
CC1(C)OC(=O)Nc2ccc(-c3cc(Cl)cc(C#N)c3)cc21	256 to 257 °C
COc1ccc2c(c1)c(C(=O)C(=O)NC1=CC(=O)OC1)cn2Cc1ccc(Cl)cc1	238 to 240 °C
Cc1cc(C)cc(C(=O)N2CC[C@H](NCc3ccnc4ccccc34)C[C@H]2Cc2ccc(Cl)c(Cl)c2)c1 (relative stereo)	121 to 124 °C

Parameter requested: melting point. Apply to each item below.
1. CCCCCCCCCCC[C@@H](C[C@@H]1OC(=O)[C@H]1CCCCCC)OC(=O)[C@H](CC(C)C)NC(=O)OCc1ccccc1
2. CC1(C)OCC(COS(=O)(=O)c2ccc([N+](=O)[O-])cc2)O1 (configuration not stated)
3. CC(C)=CCCC(C)=CCOc1ccc(C(=O)NCc2ccncc2)cc1
4. Nc1ccc2c(ccn2-c2ccncc2)c1

### Response
43 to 46 °C
92 to 94 °C
108 to 110 °C
149 to 154 °C

Parameter requested: melting point. Apply to each item below.
1. O=c1ccoc2c1ccc1ncccc12
2. Cc1c(C(=O)Nc2ccc(N3CCC(N4CCOCC4)CC3)cc2C#N)cnn1-c1ccc(Cl)cc1
3. c1ccc(COc2cccn3ccnc23)cc1
4. CCc1nc(CO)c(CO)[nH]1
5. O=c1ccc(-c2c(-c3ccccc3)nn3ccccc23)nn1CC1(O)CCNCC1

### Response
["146 to 147 °C", "212 to 213 °C", "110 °C", "173 to 174 °C", "> 260 °C"]

Parameter requested: melting point. Apply to each item below.
1. NC(C=Cc1ccc(Cl)cc1)=NO
2. Clc1ccc(CSc2nnc(-c3ccc4occc4c3)o2)cc1
3. CCCC(C)(C)NC(=O)NC1=CC(=O)OC1
4. CC(C)(C)c1cc(CCc2cc(F)cc(F)c2NC(=O)NC23CC4CC(CC(C4)C2)C3)cc(C(C)(C)C)c1O

### Response
102 to 104 °C
162 to 163 °C
130 to 132 °C
218 to 220 °C

----------
metricName: melting point

Take a look at these entries with their results.
compound	melting point
COC(=O)C1=C(C)NC(=S)N(C(=O)OC(C)C)C1c1cccc([N+](=O)[O-])c1 (stereo not drawn)	157 to 158 °C
CCC(CC)c1nn(-c2ccc(Br)cn2)cc1CCCOc1c(C)cccc1CC(=O)O	120 to 121 °C

The recorded melting point for entry CCCCOc1ccc(-c2ccc3c(c2)C=C(C(=O)O)CCS3(=O)=O)cc1 equals 244 to 247 °C

----------
metricName: melting point

Take a look at these entries with their results.
compoundStructure	melting point
Cc1cnc(N(C)C)nc1-c1ccncc1	114 to 116 °C
CC(C)C[C@H](NC(=O)OCc1ccccc1)C(=O)N[C@@H](Cc1ccccc1)C(=O)CS(C)(=O)=O	142 to 144 °C
CCOC1=NS(=O)(=O)c2cc(I)ccc21	185 to 190 °C

Parameter requested: melting point. Apply to each item below.
1. O=C(Cc1ccccc1)Nc1ccc2oc3c(c2c1)CCCC3
2. CCOC(=O)CC[C@H](NC(=O)c1cc(CCCc2coc3nc(N)nc(N)c23)cs1)C(=O)OCC
3. CCOc1cc(-c2cnc3[nH]cc(C(=O)C(C)(C)C)c3n2)cc(N2CCCC2)c1
4. COc1cc(OC)nc(NC(=O)NS(=O)(=O)c2ccccc2C(=O)O)n1
5. O=C(O)COC1=C(Cc2ccc3c(Cl)cccc3c2)C(=O)CCC1
6. S=C1Nc2ccccc2Sc2nccn21
7. CCOC(=O)N(c1cccc(C(F)(F)F)c1)c1ccccc1N=NC(NC(=O)CCl)(C(=O)OCC)C(=O)OCC
8. O=C(O)c1nccc(Cl)c1O

### Response
1: 180 to 181 °C; 2: 79 to 80 °C; 3: 236 to 237 °C; 4: 155 to 157 °C; 5: 236 to 238 °C; 6: 156 to 159 °C; 7: 76 to 79 °C; 8: 228 °C

----------
Would you mind telling me the reported melting point of each entry?

compound	metricName	result
CCN(CC)C(=O)c1cccc(F)c1[Si](C)(C)C(C)(C)C	melting point	50 to 51 °C
CNC1c2c(O)c(C)cc(C)c2C2CCCCC21 (centres undefined)	melting point	110 to 111 °C
COC(=O)C(C)(C)OCc1cc2cc(Cl)ccc2n1S(=O)(=O)c1cc(C)cc(C)c1	melting point	110 to 112 °C
COc1ccc(-c2cn3ccc4ccccc4c3n2)cc1	melting point	177 to 179 °C

Parameter requested: melting point. Apply to each item below.
1. Nc1c([N+](=O)[O-])cnn1-c1c(Cl)cc(Cl)cc1Cl
2. COC(=O)c1ccc(OCCCNC(=O)C[C@H]2O[C@H](c3cccc(OC)c3OC)c3cc(Cl)ccc3N(CC(C)(C)CO)C2=O)cc1

### Response
218 to 220 °C
147 to 149 °C

Parameter requested: melting point. Apply to each item below.
1. O=C(COc1ccccc1)COc1ccccc1
2. COC(=O)c1cc([N+](=O)[O-])c(C(F)(F)F)cc1N
3. O=C1COc2ccc3ccccc3c2N1

### Response
1: 55 to 57 °C; 2: 175 to 177 °C; 3: 219 to 220 °C

----------
metricName: melting point

Take a look at these entries with their results.
compound	result
CCC(Oc1cccc(C(F)F)c1Cl)C1=NCCN1 (stereo not given)	96 to 97 °C
CCCCCCC(C)OS(=O)(=O)NC(=O)Nc1c(C(C)C)cccc1C(C)C (stereo not given)	109 to 113 °C

Parameter requested: melting point. Apply to each item below.
1. N=C(NCCCCC1CCN(CC(O)CO)CC1)NC(=O)c1nc(Cl)c(N)nc1N (stereo not given)
2. CCOC(=O)C1CCN(c2nc(CCl)c(C)s2)CC1
3. CCCCCCCc1cnc(-c2ccc(OC(=O)c3cc(N)c(O[C@H](C)CCCCCC)cc3[N+](=O)[O-])cc2)nc1
4. CCOC(=O)c1cnc2n(c1=O)C(C)CCC2C(=S)NC (stereo not given)
5. O=C1CCC(c2ccc(-c3ccc(F)cc3)o2)O1 (stereo not given)
6. O=C(O)c1cccc(Oc2ccccc2Cl)c1[N+](=O)[O-]
7. c1csc(-c2ccc3nncn3n2)c1

### Response
["188 to 191 °C", "76 to 77 °C", "105 °C", "199 to 200 °C", "57 to 59 °C", "185 to 187 °C", "155 to 159 °C"]

The recorded melting point for entry CC(C)CC(=O)Nc1cc(-c2ccnc3c(C(=O)c4cccs4)cnn23)ccc1Cl equals 172 to 175 °C

----------
Would you mind telling me the reported melting point of each entry?
Residues, ends and D or L forms follow the SMILES beside them. *: point of attachment. Boc = CC(C)(C)OC(=O)*

compound	melting point
Cc1nc(CO)n(C)c1[N+](=O)[O-]	113 to 114 °C
CC(Cc1cccnc1)NC(=O)[C@@H]1C[C@H](C)CC[C@H]1C(C)C (some centres undefined)	108 to 110 °C
NC(=O)c1sc(-n2cnc3cnc(Cl)cc32)cc1OCc1ccccc1C(F)(F)F	248 to 249 °C
COc1ccc(/C(=C\C=C\C(=O)Oc2ccc([N+](=O)[O-])cc2)c2ccccc2OC)cc1	134 to 135 °C
CSC1=C([N+](=O)[O-])CCCN1	230 to 232 °C

Parameter requested: melting point. Apply to each item below.
1. Oc1ccc([C@H]2CC[C@H](CCC3OCCO3)CC2)cc1
2. c1cc2c(cc1CCSSCCc1ccc3c(c1)OCO3)OCO2
3. Cc1ccccc1OCC(O)CN1CCC2(CC1)CSC1=C(O2)c2ccccc2C(=O)C1=O (centres undefined)
4. CCOC(=O)C1=CNC2=C(C(=S)Nc3ccccc3)CCC(C)N2C1=O (centres undefined)

### Response
154 °C
76 to 78 °C
191 to 193 °C
173 to 175 °C

Parameter requested: melting point. Apply to each item below.
1. COC(=O)C(C(=O)c1cn2c3c(cccc13)CCC2)c1cn(C(=O)OC(C)(C)C)c2ccccc12 (centres undefined)
2. CCCNC(=O)c1nc(-c2ccccc2)c(-c2ccc(=O)n(Cc3ccccc3)n2)s1
3. COC(=O)c1ccc(-c2nc3cc(Cl)c(Cl)cc3[nH]2)cc1
4. COc1cccc(OC)c1C(=O)NC(=S)NNC(=O)c1ccc(Cl)cc1
5. NSc1nc(N)nc2nc[nH]c12

### Response
1. 86 to 91 °C
2. 120 to 121 °C
3. 240 to 250 °C
4. 206 to 208 °C
5. > 250 °C

Parameter requested: melting point. Apply to each item below.
1. NS(=O)(=O)c1cc(C(=O)O)cc([N+](=O)[O-])c1OCC(F)(F)F
2. Cc1cc(C)c2c(c1O)C(=O)C1CCCCC21 (centres undefined)
3. O=C(O)COc1ccc(C(=O)c2ccc(F)cc2)c2ccccc12

### Response
["195 to 197 °C", "64 to 65 °C", "105 to 108 °C"]

Parameter requested: melting point. Apply to each item below.
1. Cc1nc(Cn2c(=O)sc3cc(F)ccc32)no1
2. COc1ccc(Cc2nnsc2-c2cccs2)cc1
3. CNC(=O)N(C)C(=O)Nc1ccccc1
4. O=C(Nc1ccn(C(=O)c2ccccc2)c(=O)n1)c1ccccc1
5. CC(C)(C)OC(=O)N1CCCC(O)(C#Cc2cccc(Cl)c2)C1 (centres undefined)
6. O=C(O)c1ccccc1C(=O)NCc1ccccn1
7. Cc1ccc(S(=O)(=O)N2[C@@H](CCC(=N)NO)CC[C@H]2c2ccc(F)cc2)cc1 (racemic)
8. COC(=O)CNC(=O)CNC(=O)OC(C)(C)C (Boc-Gly-Gly-OMe)

### Response
1. 142 to 144 °C
2. 72.2 to 73.3 °C
3. 93 to 95 °C
4. 215 to 216 °C
5. 128 to 129 °C
6. 140 to 142 °C
7. 134 °C
8. 132 to 135 °C
